The measured values listed here are drawn from patent US9828339B2.

Molecular target: human muscarinic M3 receptor (Homo sapiens (Human))
Sequence (P20309 whole entry): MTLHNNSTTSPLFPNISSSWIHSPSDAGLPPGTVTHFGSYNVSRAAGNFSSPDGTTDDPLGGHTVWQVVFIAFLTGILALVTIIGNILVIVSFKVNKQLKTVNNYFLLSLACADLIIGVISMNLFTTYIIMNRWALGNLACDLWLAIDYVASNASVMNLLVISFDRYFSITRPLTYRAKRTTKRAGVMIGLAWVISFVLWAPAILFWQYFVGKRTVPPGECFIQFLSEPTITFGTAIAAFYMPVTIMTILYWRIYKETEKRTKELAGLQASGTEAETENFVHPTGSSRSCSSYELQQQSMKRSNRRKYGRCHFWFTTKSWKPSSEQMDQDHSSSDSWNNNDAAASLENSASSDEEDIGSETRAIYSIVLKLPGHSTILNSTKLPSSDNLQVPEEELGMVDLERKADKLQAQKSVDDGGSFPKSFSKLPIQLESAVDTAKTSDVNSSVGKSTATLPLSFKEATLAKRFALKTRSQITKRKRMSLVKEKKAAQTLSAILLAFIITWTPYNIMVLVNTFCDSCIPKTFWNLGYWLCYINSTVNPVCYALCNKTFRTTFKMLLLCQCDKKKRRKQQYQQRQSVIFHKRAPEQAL
Assay: Binding assay on human muscarinic M3 receptor ([3H]-methyl scopolamine displacement)
Details: membranes overexpressing human M3 receptor, Ki from IC50 by Cheng-Prusoff, read-out: Binding Affinity to M3 Receptor, Ki
Ki overview
Give the number; nM is assumed, so skip it.

- Compound: "O=C(Nc1ccccc1-c1ccc(F)cc1)OCC1CCCN1 (stereo in doubt) [Example 88]"
  Attribute measured: "Ki"
  Reported measurement: 99.7
- Compound: "CN1CCCC1CCOC(=O)Nc1ccc(Cl)cc1-c1cccc(F)c1 (stereo not shown) [Example 67]"
  Attribute measured: "Ki"
  Reported measurement: 16.3
- Compound: "CN1CCCC1CCOC(=O)Nc1ccc(Cl)cc1-c1cc(F)cc(F)c1 (stereo not shown) [Example 69]"
  Attribute measured: "Ki"
  Reported measurement: 109
- Compound: "COc1ccc(NC(=O)OC[C@@H]2CCCN2C)c(-c2cccc(Cl)c2)c1 [Example 224]"
  Attribute measured: "Ki"
  Reported measurement: 15.1
- Compound: "COc1ccc(NC(=O)OC[C@@H]2CCCN2C)c(-c2cc(Cl)cc(Cl)c2)c1 [Example 226]"
  Attribute measured: "Ki"
  Reported measurement: 16.7
- Compound: "CN1CCC[C@H]1COC(=O)Nc1cc(F)ccc1-c1cccc(F)c1 [Example 205]"
  Attribute measured: "Ki"
  Reported measurement: 7.95

Ask: // map CN1CC[C@H](COC(=O)Nc2ccc(F)cc2-c2cccc(F)c2)C1 [Example 108] to recorded Ki (system: human muscarinic M3 receptor (Homo sapiens (Human)))
Reply: 3.95

Ask: // map CN1CC[C@@H](COC(=O)Nc2ccccc2-c2ccc(F)c(Cl)c2)C1 [Example 136] to recorded Ki (system: human muscarinic M3 receptor (Homo sapiens (Human)))
Reply: 1.59

Ask: // map CN1CCC[C@H]1COC(=O)Nc1ccc(F)cc1-c1ccc(Cl)cc1 [Example 175] to recorded Ki (system: human muscarinic M3 receptor (Homo sapiens (Human)))
Reply: 22.5

Ask: // map CN1CCCC1CCOC(=O)Nc1ccccc1-c1cccc(CCCO)c1 (stereo not shown) [Example 29] to recorded Ki (system: human muscarinic M3 receptor (Homo sapiens (Human)))
Reply: 931

Ask: // map CN1CCC[C@H]1COC(=O)Nc1ccccc1-c1ccccc1 [Example 197] to recorded Ki (system: human muscarinic M3 receptor (Homo sapiens (Human)))
Reply: 0.78

Ask: // map COc1ccc(NC(=O)OC[C@@H]2CCCN2C)c(-c2ccc(Cl)c(Cl)c2)c1 [Example 225] to recorded Ki (system: human muscarinic M3 receptor (Homo sapiens (Human)))
Reply: 53.6

Ask: // map CN1CCCC1CCOC(=O)Nc1ccccc1-c1ccc(C#N)cc1 (stereo not shown) [Example 28] to recorded Ki (system: human muscarinic M3 receptor (Homo sapiens (Human)))
Reply: 845

Ask: // map CN1CCC[C@H]1COC(=O)Nc1ccccc1-c1cccc(F)c1F [Example 189] to recorded Ki (system: human muscarinic M3 receptor (Homo sapiens (Human)))
Reply: 65.6

Ask: // map CN1CC[C@@H](COC(=O)Nc2ccccc2-c2ccc(F)cc2)C1 [Example 114] to recorded Ki (system: human muscarinic M3 receptor (Homo sapiens (Human)))
Reply: 4.23

Ask: // map CN1CCCC1CCOC(=O)Nc1ccc(Cl)cc1-c1ccc(F)cc1 (stereo not shown) [Example 68] to recorded Ki (system: human muscarinic M3 receptor (Homo sapiens (Human)))
Reply: 13.2

Ask: // map CN1CCCC1CCOC(=O)Nc1ccc(F)cc1-c1ccc(Cl)c(F)c1 (stereo not shown) [Example 54] to recorded Ki (system: human muscarinic M3 receptor (Homo sapiens (Human)))
Reply: 126

Ask: // map CC(C)N1CCC[C@H]1COC(=O)Nc1ccccc1-c1ccccc1 [Example 112] to recorded Ki (system: human muscarinic M3 receptor (Homo sapiens (Human)))
Reply: 3.77

Ask: // map Cc1ccc(NC(=O)OC[C@@H]2CCNC2)c(-c2ccccc2)c1 [Example 86] to recorded Ki (system: human muscarinic M3 receptor (Homo sapiens (Human)))
Reply: 111

Ask: // map CCN1CC[C@H](COC(=O)Nc2ccccc2-c2cccc(C)c2)C1 [Example 105] to recorded Ki (system: human muscarinic M3 receptor (Homo sapiens (Human)))
Reply: 19.6

Ask: // map CN1CCCC1CCOC(=O)Nc1ccccc1-c1cccc(O)c1 (stereo not shown) [Example 40] to recorded Ki (system: human muscarinic M3 receptor (Homo sapiens (Human)))
Reply: 119
